Biological target: HLA-A*02:01 (Homo sapiens, UniProt P04439, D140Y/D185E/D98H/E176V/E277Q/G131W/G231S/I119V/I121R/I166T/I218V/L300P/L318F/N151K/N90K/P208A/P217A/Q86G/Q94H/R138H/R169H/T345S)
Assay: MHC binding assay: UV-ligand exchange with ELISA detection of β2m of stabilized MHC complexes
Details: binding to HLA-A*02:01
Excerpt: Candidate peptides for T cell based therapies according to the present invention were further tested for their MHC binding capacity (affinity). The individual peptide-MHC complexes were produced by UV-ligand exchange, where a UV-sensitive peptide is cleaved upon UV-irradiation, and exchanged with the peptide of interest as analyzed. Only peptide candidates that can effectively bind and stabilize the peptide-receptive MHC molecules prevent dissociation of the MHC complexes. […]
observable: Peptide exchange (MHC class I binding score, peptide exchange yield)

[
  {
    "substance": "120 (SLAADIPRL; listed as Homo sapiens) [compound 120]",
    "result": "+++ (≥50 = +++)"
  },
  {
    "substance": "44 (ALIVGIPSV; listed as Homo sapiens) [compound 44]",
    "result": "++++ (≥75% = ++++)"
  },
  {
    "substance": "53 (LLSEEHITL; listed as Homo sapiens) [compound 53]",
    "result": "++++ (≥75% = ++++)"
  },
  {
    "substance": "94 (ALFPVAEDISL; listed as Homo sapiens) [compound 94]",
    "result": "+++ (≥50 = +++)"
  },
  {
    "substance": "57 (VLIGDVLVAV; listed as Homo sapiens) [compound 57]",
    "result": "++++ (≥75% = ++++)"
  },
  {
    "substance": "111 (FLPEAPAEL; listed as Homo sapiens) [compound 111]",
    "result": "+++ (≥50 = +++)"
  },
  {
    "substance": "107 (AMYGTKLETI; listed as Homo sapiens) [compound 107]",
    "result": "++++ (≥75% = ++++)"
  },
  {
    "substance": "38 (GLISSLNEI; listed as Homo sapiens) [compound 38]",
    "result": "++++ (≥75% = ++++)"
  },
  {
    "substance": "93 (ALRETVVEV; listed as Homo sapiens) [compound 93]",
    "result": "+++ (≥50 = +++)"
  },
  {
    "substance": "35 (FMGDVFINV; listed as Homo sapiens) [compound 35]",
    "result": "++++ (≥75% = ++++)"
  },
  {
    "substance": "71 (FIFEQVQNV; listed as Homo sapiens) [compound 71]",
    "result": "+++ (≥50 = +++)"
  },
  {
    "substance": "116 (ALLVRLQEV; listed as Homo sapiens) [compound 116]",
    "result": "++++ (≥75% = ++++)"
  },
  {
    "substance": "67 (MLYDIVPVV; listed as Homo sapiens) [compound 67]",
    "result": "+++ (≥50 = +++)"
  },
  {
    "substance": "23 (YQIDTVINL; listed as Homo sapiens) [compound 23]",
    "result": "+++ (≥50 = +++)"
  },
  {
    "substance": "75 (SLDLHVPSL; listed as Homo sapiens) [compound 75]",
    "result": "+++ (≥50 = +++)"
  },
  {
    "substance": "81 (LLAEIGAVTLV; listed as Homo sapiens) [compound 81]",
    "result": "+++ (≥50 = +++)"
  },
  {
    "substance": "34 (LVFEGIMEV; listed as Homo sapiens) [compound 34]",
    "result": "+++ (≥50 = +++)"
  },
  {
    "substance": "17 (SLMLVTVEL; listed as Homo sapiens) [compound 17]",
    "result": "+++ (≥50 = +++)"
  }
]

// provenance: patent US10597433B2
